Reference source for all entries: PubChem BioAssay

assay: growth suppression of beta-catenin knockout HCT116, pilot screen, human colon tumor cells (AID 823); conditions: CellTiter-Glo, 60 h, at 10 µM, stronger effect = lower value;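 further: 0% = wells killed by 20 µM Hyamine and 100% = untreated DMSO cell wells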
Results filed as inconclusive are left out.
Please go through the items and note down their viability.
Dear colleague, please return just the value in %, with no unit written.

The reported viability of the compound Cc1cc(NC(=O)COC(=O)c2ccc(F)c(S(=O)(=O)N3CCOCC3)c2)no1 was 103

Entry under test: CCn1c(SCC(=O)NCC2CCCO2)nc2c(c1=O)SC(C)C2 (stereo not drawn) . Its viability was 103

Entry COc1ccccc1OCC(=O)NC1CCCCCC1 ; viability = 96.3

GET /value?item= O=C(C1CCN(S(=O)(=O)c2cccc3cccnc23)CC1)N1CCn2c1nc1ccccc12 &field=viability returns 87.7

# viability of CCOc1ccc(C2CC(c3cccc(OC)c3)n3nc(N)nc3N2)cc1 (stereo not drawn) = 109

Input Cc1c(C(=O)Nc2ccncc2)sc2nc(-c3ccccc3)cn12 . Output viability: 89.2

// field: viability; key: O=C(COc1ccccc1F)c1ccc(O)cc1O ; value = 101

Sure, the documented viability for CCOC(=O)c1[nH]c(C)c(C(=O)N(CC)CC)c1C is 97

The compound CCCCSc1nnc(C)c(=O)[nH]1 showed viability equal to 97.6

// sample COc1ccc(-c2nnc3ccc(SCC(=O)N4CCCC4)nn23)cc1 , its viability was 101

Briefly, viability measured for Cc1sc2nc3ccc(N4CCCC4)nn3c(=O)c2c1C : 70.1

The compound COc1ccc(CN2C(=O)CCC2(C)C(=O)NC2CCCC2)c(OC)c1 (stereo not drawn) showed viability equal to 105

Noted for COc1ccc(-n2c(Cc3cc(=O)[nH]c(=O)[nH]3)nnc2SCC(=O)N2CCCC2)cc1 : its viability reads 101

Kindly note the recorded viability for COC(=O)CCc1n[nH]c(=O)[nH]c1=O , which is 106

O=C(c1cc(-c2cccc(O)c2)on1)N1CCCCC1 yielded viability of 101

Looking up COc1cccc(N2CCN(C(=O)C3CCCN(S(=O)(=O)c4cnc[nH]4)C3)CC2)c1 (stereo not drawn) , I see its viability listed as 97

Note to self: viability recorded for CCCCOC(=O)Nc1ccc(S(=O)(=O)Nc2cc(C)nc(C)n2)cc1 was 95.8

Looking up CCN(CC(=O)NCc1ccc(F)cc1)C(=O)C1CCN(C(=O)Nc2ccccc2)CC1 , I found its viability recorded as 96.2

Memo: CCOC(=O)c1c(C)n(C)c2ccc(OCC(O)CN3CCC(C)CC3)cc12 (stereo not drawn) , reported viability: 70.2

# compound O=C(Nc1nc2ccccc2n1CCOc1ccc(Cl)cc1)c1ccco1 ; its viability = 11.8

Reported viability ( O=C(Nc1ccccc1)OCCOc1ccccc1 ) = 91.7

Given item CCC(C)Sc1nc2c(cnn2-c2ccc(C)c(C)c2)c(=O)[nH]1 (stereo not drawn) , the value recorded as its viability is 73

In plain terms, O=C(C1CCCCN1S(=O)(=O)c1ccc(F)cc1)N1CCN(c2ccccc2F)CC1 (stereo not drawn) has a documented viability of 80.8

Measured viability, Cc1c(C#N)c2ncn(Cc3ccccc3)c(=O)c2n1-c1ccccc1 : 81.1

viability in this record for CCCn1c(-c2ccc(OC)cc2)nc2ccccc21 : 74.4

What the record says about Cn1c(NCCO)nc2c(c1=O)C1(CCCCC1)Cc1ccccc1-2 : viability is 84

Record COc1ccc(C)cc1S(=O)(=O)NC1CCCCC1 , field viability: 101

Lab note: CCN1CCN(C(=O)Cn2c(=O)sc3ccccc32)CC1 gave viability of 107

Consider COc1ccccc1Cc1nc(-c2ccc(Br)o2)no1 . Its measured viability is 97.4

The recorded viability for CN(C)Cc1nc2c([nH]1)c(=O)n(C)c(=O)n2C is 95.1

// viability value for CC(C)NC(=O)C1CCCN(c2nnc(-n3cccc3)s2)C1 (stereo not drawn) : 108

Entry under test: CC(=O)Nc1ccc(C2Nc3ccccc3C(=O)N2C2CCCCC2)cc1 (stereo not drawn) . Its viability was 94.9

For this compound ( COc1cccc(N2C(=O)C3CCCN3C2c2ccc(Cl)cc2)c1 (stereo not drawn) ), measured viability is 95.2
